Property name: melting point

So, "Cc1cccc(-c2nc(NC(=O)Nc3ccccc3)sc2-c2ccnc(C)c2)c1" ? Its melting point was 168 to 169 °C

So, "CCc1nc(-c2cccc(Cl)c2)c(-c2ccnc(NC3CCCCC3)c2)s1" ? Its melting point was 106 to 107 °C

So, "Cc1cccc(-c2nc(C(C)(F)F)sc2-c2ccnc(N)c2)c1" ? Its melting point was 140 to 141 °C

Others:
So, "Cc1cccc(-c2nc(NC(=O)NCCCl)sc2-c2ccnc(C)c2)c1" ? Its melting point was 149 to 151 °C

So, "Cc1cccc(-c2nc(NC(=O)c3cccnc3)sc2-c2ccnc(NC3CCCC3)c2)c1" ? Its melting point was 215 to 216 °C

So, "CCC(=O)Nc1cc(-c2sc(-c3ccc(S(C)(=O)=O)cc3)nc2-c2cccc(Cl)c2)ccn1" ? Its melting point was 224 to 225 °C

So, "CSc1ccc(-c2nc(-c3cccc(C)c3)c(-c3ccnc(NCCCc4ccccc4)c3)s2)cc1" ? Its melting point was 106 to 107 °C

So, "Cc1cccc(-c2nc(NC(=O)OCCCl)sc2-c2ccnc(C)c2)c1" ? Its melting point was 156 to 158 °C

So, "Cc1cccc(-c2nc(-c3ccc(S(C)(=O)=O)cc3)sc2-c2ccnc(N3CCCC3)c2)c1" ? Its melting point was 199 to 201 °C

###

Property name: melting point

So, "Cc1cccc(-c2nc(NC(=O)Nc3ccccc3)sc2-c2ccnc(NC3CCCC3)c2)c1" ? Its melting point was 188 to 190 °C

So, "CCC(=O)Nc1cc(-c2sc(-c3ccc(SC)cc3)nc2-c2cccc(Cl)c2)ccn1" ? Its melting point was 187 to 188 °C

So, "CCc1nc(-c2cccc(C)c2)c(-c2ccnc(CC#N)c2)s1" ? Its melting point was 68 to 69 °C

So, "CSc1ccc(-c2nc(-c3cccc(Cl)c3)c(-c3ccnc(NC(C)=O)c3)s2)cc1" ? Its melting point was 207 to 208 °C

So, "Cc1cccc(-c2nc(-c3ccc(F)cc3)sc2-c2ccnc(NC(=O)Cc3ccccc3)c2)c1" ? Its melting point was 187 to 190 °C

Others:
So, "CSc1ccc(-c2nc(-c3cccc(C)c3)c(-c3ccnc(NCc4ccc5ccccc5c4)c3)s2)cc1" ? Its melting point was 144 to 145 °C

So, "CC(=O)Nc1nc(-c2cccc(C)c2)c(-c2ccnc(C)c2)s1" ? Its melting point was 230 to 231 °C

###

Items are presented alongside their recorded melting point.

So, "CNc1nc(-c2ccc(Cl)cc2)c(-c2ccncc2)s1" ? Its melting point was 224 to 225 °C

So, "COc1ccc(-c2nc(N)sc2-c2ccncc2)cc1" ? Its melting point was 282 to 284 °C

So, "CCc1nc(-c2cccc(C)c2)c(-c2ccnc(NC3CCCCC3)c2)s1" ? Its melting point was 110 to 112 °C

So, "Cc1cccc(-c2nc(N3CCN(C)CC3)sc2-c2ccnc(C)c2)c1" ? Its melting point was 115 to 116 °C

Others:
So, "COc1ccc(-c2nc(C)sc2-c2ccnc(NCc3ccccc3)c2)cc1" ? Its melting point was 132 to 133 °C

###

Items are presented alongside their recorded melting point.

Examples with answers:
So, Cc1cc(C)cc(-c2nc(NC(=O)c3ccncc3)sc2-c2ccncc2)c1 [Reference Example A 23-200] ? Its melting point was 302 to 304 °C

So, "CCc1nc(-c2ccccc2)c(-c2ccnc(NC(C)=O)c2)s1" ? Its melting point was 175 to 176 °C

So, "COc1ccc(-c2nc(NC(C)=O)sc2-c2ccnc(NC(C)=O)c2)cc1" ? Its melting point was 262 to 264 °C

So, "CCc1nc(-c2cccc(OC)c2)c(-c2ccnc(NC(=O)Cc3ccccc3)c2)s1" ? Its melting point was 128 to 129 °C

So, "CCc1nc(-c2ccc(F)c(C)c2)c(-c2ccnc(N)c2)s1" ? Its melting point was 134 to 135 °C

So, "Cc1cccc(-c2nc(N)sc2-c2ccnc(N3CCOCC3)c2)c1" ? Its melting point was 188 to 189 °C

So, "Cc1cccc(-c2nc(N)sc2-c2ccnc(C)c2)c1" ? Its melting point was 205 to 206 °C

So, "Cc1cccc(-c2nc(C3CCN(C)CC3)sc2-c2ccnc(NC(=O)c3ccccc3)c2)c1" ? Its melting point was 151 to 152 °C

Others:
So, "CONC(=O)Nc1nc(-c2cccc(C)c2)c(-c2ccnc(C)c2)s1" ? Its melting point was 194 to 195 °C

So, "CCOC(=O)c1nc(-c2cccc(C)c2)c(-c2ccnc(C)c2)s1" ? Its melting point was 97 to 98 °C

So, "CSCc1nc(-c2cccc(C)c2)c(-c2ccnc(N)c2)s1" ? Its melting point was 113 to 114 °C

So, "Cc1cccc(-c2nc(N(C)C(=O)c3ccc(C)nc3)sc2-c2ccnc(NC3CCCC3)c2)c1" ? Its melting point was 176 to 177 °C

Cited source for all entries: patent US20050080113A1
